# Test system: HCV genotype 1b replicon
# Format: cell-based
# conditionSet: Huh-7-derived cell line (Zluc), HCV genotype 1b replicon with luciferase reporter, 72 hours of incubation
attributeMeasured: EC50

Worked set:
molecule	systemUnderTest	EC50
COC(=O)CSP(=O)(N[C@@H](C)C(=O)OC(C)C)OC[C@H]1O[C@@H](n2ccc(=O)[nH]c2=O)[C@](C)(Cl)[C@@H]1O (stereo partly drawn) [Compound 17b]	HCV genotype 1b replicon	> 10 µM
CC(C)OC(=O)[C@@H](C)NP(=O)(OC[C@H]1O[C@@H](n2ccc(=O)[nH]c2=O)[C@](C)(Cl)[C@@H]1O)SC1CCCC1 (single isomer, unassigned) [8a Diastereomer 1]	HCV genotype 1b replicon	> 10 µM
CC(C)OC(=O)[C@H](C)NP(=O)(OC[C@H]1O[C@@H](n2ccc(=O)[nH]c2=O)[C@](C)(Cl)[C@@H]1O)SC1CCCC1 (single isomer, unassigned) [8b Diastereomer 1]	HCV genotype 1b replicon	1 to 10 µM
CCOC(=O)[C@H](C)NP(=O)(OC[C@H]1O[C@@H](n2cnc3c(=O)[nH]c(N)nc32)[C@](C)(O)[C@@H]1O)SCC (stereo partly drawn) [Compound 13b]	HCV genotype 1b replicon	1 to 10 µM
CC(C)OC(=O)[C@H](C)NP(=O)(OC[C@H]1O[C@@H](n2ccc(=O)[nH]c2=O)[C@](C)(O)[C@@H]1O)SCC1NC(=O)NC1=O (single isomer, unassigned) [4b Diastereomer 1]	HCV genotype 1b replicon	> 10 µM

Enquiry: Given the molecule CCOc1nc(N)nc2c1ncn2[C@@H]1O[C@H](COP(=O)(N[C@@H](C)C(=O)OC(C)C)SCC2NC(=O)NC2=O)[C@@H](O)[C@@]1(C)F (single isomer, unassigned) [3b Diastereomer 1] , what is its reported EC50?
Return: 1 to 10 µM

Enquiry: Given the molecule CCOC(=O)CCSP(=O)(N[C@@H](C)C(=O)OC(C)C)OC[C@H]1O[C@@H](n2ccc(=O)[nH]c2=O)[C@](C)(O)[C@@H]1O (stereo partly drawn) [Compound 15b] , what is its reported EC50?
Return: > 10 µM

Enquiry: Given the molecule CCOC(=O)[C@H](C)NP(=O)(OC[C@H]1O[C@@H](n2cnc3c(OCC)nc(N)nc32)[C@](C)(O)[C@@H]1O)SCC (stereo partly drawn) [Compound 10b] , what is its reported EC50?
Return: ≤ 0.25 µM

Enquiry: Given the molecule COC(=O)N[C@@H](CSP(=O)(N[C@@H](C)C(=O)OC(C)C)OC[C@H]1O[C@@H](n2cnc3c(OC)nc(N)nc32)[C@](C)(O)[C@@H]1O)C(=O)OC(C)C (stereo partly drawn) , what is its reported EC50?
Return: 1 to 10 µM
